# System: rodent lifetime carcinogenesis bioassay, tumor incidence TD50
# ASSAY COMMENT: carcinogenic potency in animals, long-term in vivo studies, CPDB compilation (AID 1745844)
# PROTOCOL CONDITIONS: mouse; strain B6C3F1; females; inhaled; site: any site (literature study); lesion: several types; types named in the paper; dosed 100 weeks; study length 100 weeks
READOUT TYPE: TD50 (mg/kg/day)
Please give a number only; it is taken to be in mg/kg/day.

Enquiry: Entry `CCCl` has what TD50?
Return: 1380

###

# Tested on: rodent lifetime carcinogenesis bioassay, tumor incidence TD50
# ASSAY COMMENT: carcinogenic potency in animals, long-term in vivo studies, CPDB compilation (AID 1745844)
# PROTOCOL CONDITIONS: rat; strain Charles River CD (Sprague-Dawley); males; in feed; site: small intestine; lesion: several types; types named in the paper; dosed 47 weeks; study length 51 weeks
READOUT TYPE: TD50

Enquiry: Suppose we examine the molecule `COc1ccc(OC)c(/C=C/c2ccc(N)cc2)c1` ; what TD50 value has been reported?
Return: 0.866 mg/kg/day

Origin of values: PubChem BioAssay AID1745844
